The reported numbers originate from ChEMBL document CHEMBL1201862.

- System: A498
- methodNotes: NCI tumour cell line growth inhibition, 48 h
Active and inactive are the calls of the source. Rule as the data show it: active = GI50 up to about 1.1 µM and inactive = higher.
Response enum: active, inactive

QUERY: Hey, what did the test say about CSC(=NC1=NC(C(F)(F)F)(C(F)(F)F)N=C(c2ccccc2)O1)SC ?
RESULT: inactive

QUERY: Recorded test outcome, item CC(=O)OC1CCC2(C)C(=CCC3C4CCC5(OC6CC(C)CN(C(C)=O)C6C5C)C(C)=C4C(=O)C32)C1 (configuration not stated)
RESULT: inactive

QUERY: # lookup: test call for COc1ccc2nc3cc(Cl)ccc3c(Nc3ccccc3-c3ccccc3Nc3c4ccc(Cl)cc4nc4ccc(OC)cc34)c2c1
RESULT: inactive

QUERY: Short answer needed: outcome of this test for O=C1C=C(C2OC(CO)C(O)C2O)C(=O)N1 (configuration not stated) ?
RESULT: inactive

QUERY: Identify the outcome logged in this assay for the molecule shown: O=C1C=CC(=O)c2c(NCC3CC3)ccc(NCC3CC3)c21
RESULT: inactive

QUERY: // outcome(item) with item = COC(=O)C1C(O)C(C)C(O)C(C)/C=C\C=C(C)C(=O)Nc2c(C)c(OC(C)=O)c3c(c2O)C(=O)C(C)=C2OCOC(=C23)C(C)=CC(C)(O)C(O)C(C)C1O (configuration not stated)
RESULT: inactive

QUERY: Per the assay record, what outcome was assigned to Cc1nc(N)c(N2CCN(CN)CC2)c(O)n1 ?
RESULT: inactive

QUERY: Which outcome was entered for the molecule CC(=O)Nc1nc(Cl)cc(NCC2(CO)CCC2)n1 in this test?
RESULT: inactive

QUERY: For CCOC(=O)/C=C/C(=O)O/C=C/[N+](=O)[O-] , which call appears in the assay record?
RESULT: inactive

QUERY: Just curious, what result did CCOC(=O)C1=C(C)N(NC(=O)Nc2ccccc2)C2(N)N(NC(=O)Nc3ccccc3)C(C)=C(C(=O)OCC)C12C#N (configuration not stated) get here?
RESULT: inactive

QUERY: What did this assay record as the result for COP(=O)(/C=C/c1cc(C(=O)OCc2ccccc2)n(S(=O)(=O)c2ccccc2)c1)OC ?
RESULT: inactive

QUERY: Which outcome was assigned to NC1=NS(=O)(=O)Nc2nc(-c3cccs3)[nH]c21 in this test?
RESULT: inactive

QUERY: Given Cc1cccc2c(O)c3c(O)cc(O)cc3nc12 , state the outcome it received in this test.
RESULT: inactive

QUERY: How did this test come out for CC[C@@]1(OC(=O)CCC(=O)O)C(=O)OCc2c1cc1n(c2=O)Cc2cc3ccccc3nc2-1 ?
RESULT: active

QUERY: Query: recorded result category for COC(=O)CCCc1c(-c2[nH]c3ccccc3c2CCCC(=O)OC)[nH]c2ccccc12 in this test
RESULT: inactive

QUERY: Entry CC(=O)c1cccc(NC(=O)C(=O)c2c(O)oc3ccccc3c2=O)c1 : call = ?
RESULT: inactive

QUERY: Hi, do you know how COc1cccc(-c2c(-c3ccccc3)[nH]c(C)c2C(=O)ONC(=O)c2ccccc2)c1 came out in this test?
RESULT: inactive

QUERY: # fetch the recorded call for C/C(CC(=O)Nc1ccc(C)c(C)c1)=N\NC(N)=O here
RESULT: inactive

QUERY: Called result for CC(C)N1CCCOC(c2ccc([N+](=O)[O-])cc2)O1 (configuration not stated)
RESULT: inactive

QUERY: What did the test return for Cc1cc2c(c(C(N)=O)c1C)-c1cc(Cl)cc(Cl)c1C2=O ?
RESULT: inactive

QUERY: Recorded test call requested for COc1ccc2cc(NC(=O)N/N=C\c3ccc([N+](=O)[O-])cc3)ccc2c1
RESULT: inactive

QUERY: Check the results log: what was the call for O=C(CCc1nnc2s/c(=C\c3ccc4c(c3)OCO4)c(=O)n12)Nc1cc(Cl)ccc1Cl ?
RESULT: inactive

* * *

Could you please report measured GI50 for the items listed next?
- System: HOP-92
- methodNotes: NCI tumour cell line growth inhibition, 48 h
Calls of active or inactive are those of the source. Cut-off read from the data, not from the text of the source: active = GI50 up to about 1.1 µM and inactive = higher.

Documented GI50 of O=C(O)CCNc1ccccc1C(=O)O : > 100 µM (inactive)

Form: molecule = COc1ccc2c(c1)C(=O)/C(=C/c1ccccc1)C2 ; GI50 = 59.7 µM (inactive)

Sure, the documented GI50 for COC(=O)Cc1cccc2c1CCC2=O is > 100 µM (inactive)

Form field GI50, entry Cc1nc2ccccc2c(=O)n1NC(=O)c1ccccn1 : > 100 µM (inactive)

* * *

- System: SN12C
- methodNotes: NCI tumour cell line growth inhibition, 48 h
Where a name gives a salt, the structure may show the parent alone. Activity calls are given as the source filed them. No stated cut-off is given here; in the data, active = GI50 up to about 1.1 µM and inactive = higher.
# output must be one of 1 (active), -1 (inactive)

QUERY: // param item: COc1ccc(CN2C(=O)C(=O)N(C)C2=O)c2ccccc12 ; yields the recorded call
RESULT: -1

QUERY: Recorded call for CN(C)c1ccc(C=c2c3cc(O)ccc3n3c2cc(-c2ccccc2)[n+]3C)cc1 ?
RESULT: 1

QUERY: Assay outcome for CCN(/C=C1/C(=O)C(c2ccccc2)N(c2ccccc2)C1=O)CC (stereo unspecified) : what was it?
RESULT: -1

QUERY: Fill in: this test's call for O=C(NNCC(F)(F)F)c1ccncc1 is ___
RESULT: -1

QUERY: Could you please tell me the result logged for COc1ccc(Cc2nccc3cc(OC)c(OC)cc23)cc1OC [PAPAVERINE HYDROCHLORIDE] in this assay?
RESULT: -1

QUERY: What was the test verdict on CCOC(=O)NC(NC(C)CC)(C(F)(F)F)C(F)(F)F (stereo unspecified) ?
RESULT: -1

QUERY: # fetch the recorded call for CN(Cc1cnc2nc(N)nc(N)c2n1)c1ccc(C(=O)NC(CCC(=O)O)C(=O)O)cc1C(F)(F)F (stereo unspecified) here
RESULT: 1

QUERY: What did the test return for O=C(c1ccccc1)c1ccc2[nH]c(-c3c(Cl)c(Cl)c(Cl)c(Cl)c3C(=O)N/N=C\C=C\c3ccccc3)nc2c1 ?
RESULT: -1

QUERY: Can you look up the reported call for Clc1ccc(C(c2ccccc2Cl)C(Cl)Cl)cc1 (stereo unspecified) [MITOTANE] for me?
RESULT: -1

QUERY: Just curious, what result did Cc1ccc(S(=O)(=O)CC2(Br)CCc3ccccc3C2=O)cc1 (stereo unspecified) get here?
RESULT: -1

QUERY: Please indicate how the test categorized COC(=O)C1(Cc2ccccc2)Cc2c(C)ccc(C)c2C1=O (stereo unspecified) .
RESULT: -1

QUERY: # fetch the recorded call for CC(C)C(C/C=C1/CC(CO)(COC(=O)c2ccccc2)OC1=O)C(C)C (stereo unspecified) here
RESULT: -1

QUERY: For O=C1c2cc(CCl)sc2C(=O)c2ccsc21 , what call appears in the results of this test?
RESULT: 1

QUERY: // outcome(item) with item = O=C(Nc1nc2ccccc2s1)c1cc([N+](=O)[O-])ccc1Cl
RESULT: -1

QUERY: What outcome does the record of this test show for COc1ccc(/C(=N/Nc2ccccc2)C(c2ccc(OC)cc2)C2OC(=O)c3ccccc32)cc1 (stereo unspecified) ?
RESULT: -1

QUERY: Please state the recorded outcome for this compound: CCOC(=O)C(NC(=O)c1ccc(/N=N/N(C)C)cc1)C(C)C (stereo unspecified)
RESULT: -1

QUERY: Name the outcome recorded for CCCC(=O)NC1=C(NCC)C(=O)c2ccccc2C1=O in the assay.
RESULT: -1

QUERY: What did the test return for CCCN1CN(C(C(=O)N[C@@H]2C(=O)N3C(C(=O)O)=C(C)CSC23)c2ccc(O)cc2)CSC1=S (stereo partly specified) ?
RESULT: -1

QUERY: Could you please tell me the result logged for Cc1nc2ccccc2c(=O)n1NC(=O)c1ccccn1 in this assay?
RESULT: -1

QUERY: For this compound, state the assay outcome: O=C(N/C(=C\c1cc(Cl)ccc1Cl)c1nc2c(O)nc(S)nc2[nH]1)c1ccccc1
RESULT: -1

QUERY: Entry CC[C@@]1(OC(=O)CCC(=O)O)C(=O)OCc2c1cc1n(c2=O)Cc2cc3ccccc3nc2-1 : call = ?
RESULT: 1
